# reported IC50; entries follow
- STUDY SYSTEM: human full-length MKNK1 (Homo sapiens, UniProt Q9BUB5, T385D)
- Construct: GST (N)
- Sequence (Q9BUB5 1-424 isoform Q9BUB5-2 T344D): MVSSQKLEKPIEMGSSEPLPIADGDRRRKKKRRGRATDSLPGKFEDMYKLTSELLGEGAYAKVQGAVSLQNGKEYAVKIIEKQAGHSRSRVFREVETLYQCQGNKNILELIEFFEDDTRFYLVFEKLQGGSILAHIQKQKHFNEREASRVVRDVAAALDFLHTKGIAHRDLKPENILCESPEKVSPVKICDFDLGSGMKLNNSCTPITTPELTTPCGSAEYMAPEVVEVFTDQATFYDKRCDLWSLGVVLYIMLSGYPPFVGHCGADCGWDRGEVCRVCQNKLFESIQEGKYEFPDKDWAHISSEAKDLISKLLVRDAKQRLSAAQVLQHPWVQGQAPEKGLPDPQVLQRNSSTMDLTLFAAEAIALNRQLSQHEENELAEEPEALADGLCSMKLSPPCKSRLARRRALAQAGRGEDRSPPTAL
- PROTOCOL DESCRIPTION: MKNK1 kinase high ATP assay (TR-FRET)
- RUN CONDITIONS: high ATP (2 mM final), 15 min preincubation with enzyme, GST-MKNK1 (T344D)

| LINE NOTATION | IC50 |
| --- | --- |
| CCOC(=O)c1cc2c(Nc3cc4sc(=O)[nH]c4cc3OC)ncnc2[nH]1 | 4 nM |
| CCCc1[nH]c2ncnc(Nc3ccc4[nH]c(=O)sc4c3)c2c1CC | 16 nM |
| O=c1[nH]c2ccc(Nc3ncnc4[nH]c(Br)cc34)cc2s1 | 5 nM |
